# Tested on: 616215-338-R-J1-PDC complex spheroid viability
# procedure text: Anticancer human tumor 616215-338-R-J1-PDC patient-derived colon adenocarcinoma cell line growth inhibition [POLQ]
# applied conditions: second compound 0.1 µM; first compound 10 µM; active compounds read low
I'd be grateful if you could share measured viability, T/C for these entries.

Examples with answers:
compound: CC1COCCN1c1cc(-c2ccnn2C)c2ccnc(-c3ccn[nH]3)c2n1 (stereo not given) + COC1C(OC(N)=O)C(O)C(Oc2ccc3c(O)c(NC(=O)c4ccc(O)c(CC=C(C)C)c4)c(=O)oc3c2C)OC1(C)C
experimental target: 616215-338-R-J1-PDC complex spheroid viability;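 note: spheroids exposed to compounds for one week before readout; percent viability relative to DMSO vehicle wells taken as 100%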
viability, T/C: 38.7%

compound: CCc1cc2c(N3CCc4c(cc(Cn5ccnc5)cc4-c4cn(C)nc4C(F)(F)F)C3=O)cc(C)nc2c(OC)n1 + COC1C(OC(N)=O)C(O)C(Oc2ccc3c(O)c(NC(=O)c4ccc(O)c(CC=C(C)C)c4)c(=O)oc3c2C)OC1(C)C
experimental target: 616215-338-R-J1-PDC complex spheroid viability;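 note: spheroids exposed to compounds for one week before readout; percent viability relative to DMSO vehicle wells taken as 100%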
viability, T/C: 48.8%

compound: CC1COCCN1c1cc(C2(S(C)(=N)=O)CC2)nc(-c2ccnc3[nH]ccc23)n1 (stereo not given) + Nc1ccc(C#CCN(C(=O)Cc2ncc(C(F)(F)F)cc2C(F)(F)F)c2ccc(F)cc2)nn1
experimental target: 616215-338-R-J1-PDC complex spheroid viability;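 note: spheroids exposed to compounds for one week before readout; percent viability relative to DMSO vehicle wells taken as 100%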
viability, T/C: 34.7%

compound: O=C(Nc1ccc(O)c(NS(=O)(=O)c2ccc(F)cc2)c1)c1ccc(-c2ccccc2)cc1 + COC1C(OC(N)=O)C(O)C(Oc2ccc3c(O)c(NC(=O)c4ccc(O)c(CC=C(C)C)c4)c(=O)oc3c2C)OC1(C)C
experimental target: 616215-338-R-J1-PDC complex spheroid viability;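 note: spheroids exposed to compounds for one week before readout; percent viability relative to DMSO vehicle wells taken as 100%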
viability, T/C: 118%

For reference, reported viability, T/C for O=C(c1cc(Cc2n[nH]c(=O)c3ccccc23)ccc1F)N1CCN(C(=O)C2CC2)CC1 + Nc1ccc(C#CCN(C(=O)Cc2ncc(C(F)(F)F)cc2C(F)(F)F)c2ccc(F)cc2)nn1 stands at 66.9%
